Biological target: GST-WRKY45 (UniProt Q9S763 1-147)
Sequence (Q9S763 whole entry): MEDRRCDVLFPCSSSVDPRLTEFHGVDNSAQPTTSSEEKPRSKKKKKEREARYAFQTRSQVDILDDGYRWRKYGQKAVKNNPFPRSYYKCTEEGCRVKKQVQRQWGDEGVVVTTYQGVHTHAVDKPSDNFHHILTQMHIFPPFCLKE
Assay: EMSA; Beyotime chemiluminescent EMSA kit binding buffer (composition, salt and pH not stated), room temperature, 20 min, 6% native PAGE; unlabeled competitor 5x and 50x or 50-100x (Methods)
Conditions: protein: recombinant; tags: GST; label: biotin (end); blunt
Value type: binding result

binder="ORA59-W3 (dsDNA) DNA 1: CCATCTAACAACAAATTTGACCAAAAGTTTCCTTATT DNA 2: AATAAGGAAACTTTTGGTCAAATTTGTTGTTAGATGG" value_type="binding result" recorded_value=binds
binder="ORA59-W6 (dsDNA) DNA 1: GAAACCGACGTTAGGTTTGACTATTTTATTTACAGTC DNA 2: GACTGTAAATAAAATAGTCAAACCTAACGTCGGTTTC" value_type="binding result" recorded_value=binds
binder="ORA59-W2 (dsDNA) DNA 1: TAATCGCATCGCATGTTTGACCCATTTAGCCGCATAT DNA 2: ATATGCGGCTAAATGGGTCAAACATGCGATGCGATTA" value_type="binding result" recorded_value=binds
